# test.system: T1, IL10Rα/IL2Rγ receptor (human) (UniProt Q13651)
# T1 sequence (looked up) 1: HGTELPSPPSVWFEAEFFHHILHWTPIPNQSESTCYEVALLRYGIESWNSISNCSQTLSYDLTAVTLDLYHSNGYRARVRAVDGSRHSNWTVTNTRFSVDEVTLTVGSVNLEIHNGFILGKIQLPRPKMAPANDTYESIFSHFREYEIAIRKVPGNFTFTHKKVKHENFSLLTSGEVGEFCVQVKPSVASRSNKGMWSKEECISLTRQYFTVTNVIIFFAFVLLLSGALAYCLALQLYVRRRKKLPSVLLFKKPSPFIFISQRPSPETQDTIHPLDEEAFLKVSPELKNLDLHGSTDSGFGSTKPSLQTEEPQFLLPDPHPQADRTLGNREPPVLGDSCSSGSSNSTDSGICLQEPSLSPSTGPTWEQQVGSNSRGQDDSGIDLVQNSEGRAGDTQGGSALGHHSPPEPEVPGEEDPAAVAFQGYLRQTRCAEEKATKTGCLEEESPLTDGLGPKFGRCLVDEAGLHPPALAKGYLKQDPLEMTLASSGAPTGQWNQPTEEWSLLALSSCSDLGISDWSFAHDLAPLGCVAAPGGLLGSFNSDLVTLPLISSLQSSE
# T1 sequence (looked up) 2: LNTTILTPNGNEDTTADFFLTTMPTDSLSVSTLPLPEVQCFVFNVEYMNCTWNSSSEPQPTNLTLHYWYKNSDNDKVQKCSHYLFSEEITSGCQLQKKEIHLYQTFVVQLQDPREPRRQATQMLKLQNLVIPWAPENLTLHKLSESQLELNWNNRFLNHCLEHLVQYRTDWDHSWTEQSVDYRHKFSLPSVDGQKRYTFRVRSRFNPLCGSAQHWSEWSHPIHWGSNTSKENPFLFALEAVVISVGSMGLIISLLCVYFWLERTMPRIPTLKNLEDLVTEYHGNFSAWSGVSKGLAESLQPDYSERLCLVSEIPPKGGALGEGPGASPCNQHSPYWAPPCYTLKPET
# test.protocol: cell-based or functional assay
readout.type: IL-1β secretion, LPS treated monocytes, at 1 µM (pg/mL)

[
  {
    "binder": "hIL10Ra_VHH14 - hIL2Rg_VHH19, linker GGGS, tag his (bispecific antibody, not shown: small tags and cut ends) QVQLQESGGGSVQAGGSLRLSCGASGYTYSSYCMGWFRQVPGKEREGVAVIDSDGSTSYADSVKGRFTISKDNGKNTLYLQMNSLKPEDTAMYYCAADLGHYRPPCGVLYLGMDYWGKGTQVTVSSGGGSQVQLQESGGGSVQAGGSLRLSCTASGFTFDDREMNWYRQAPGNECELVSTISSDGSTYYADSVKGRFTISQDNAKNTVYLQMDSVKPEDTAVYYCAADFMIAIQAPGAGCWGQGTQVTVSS",
    "value.unit": "pg/mL",
    "obs.value": 5350
  },
  {
    "binder": "hIL10Ra_VHH14 - hIL2Rg_VHH19, linker GGGSGGGS, tag his (bispecific antibody, not shown: small tags and cut ends) QVQLQESGGGSVQAGGSLRLSCGASGYTYSSYCMGWFRQVPGKEREGVAVIDSDGSTSYADSVKGRFTISKDNGKNTLYLQMNSLKPEDTAMYYCAADLGHYRPPCGVLYLGMDYWGKGTQVTVSSGGGSGGGSQVQLQESGGGSVQAGGSLRLSCTASGFTFDDREMNWYRQAPGNECELVSTISSDGSTYYADSVKGRFTISQDNAKNTVYLQMDSVKPEDTAVYYCAADFMIAIQAPGAGCWGQGTQVTVSS",
    "value.unit": "pg/mL",
    "obs.value": 5670
  },
  {
    "binder": "hIL10Ra_VHH14 - hIL2Rg_VHH19, linker …, tag his (bispecific antibody, not shown: small tags and cut ends) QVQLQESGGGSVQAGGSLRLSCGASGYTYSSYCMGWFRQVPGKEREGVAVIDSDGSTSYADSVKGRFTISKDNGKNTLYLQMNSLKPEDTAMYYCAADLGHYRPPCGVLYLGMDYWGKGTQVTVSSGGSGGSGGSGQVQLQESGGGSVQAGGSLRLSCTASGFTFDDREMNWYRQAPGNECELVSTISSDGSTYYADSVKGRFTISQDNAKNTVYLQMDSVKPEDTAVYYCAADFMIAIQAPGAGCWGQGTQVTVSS",
    "value.unit": "pg/mL",
    "obs.value": 5680
  },
  {
    "binder": "hIL10Ra_VHH14 - hIL2Rg_VHH19, linker GGGS, tag Fc (bispecific antibody, not shown: a dimerising Fc or GST) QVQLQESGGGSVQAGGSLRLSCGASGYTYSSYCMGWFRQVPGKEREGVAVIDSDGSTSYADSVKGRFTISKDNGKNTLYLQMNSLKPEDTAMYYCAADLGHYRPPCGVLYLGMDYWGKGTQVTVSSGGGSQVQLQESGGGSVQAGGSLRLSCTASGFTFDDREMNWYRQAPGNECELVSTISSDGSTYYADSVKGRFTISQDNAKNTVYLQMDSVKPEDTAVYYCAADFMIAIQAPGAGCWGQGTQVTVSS",
    "value.unit": "pg/mL",
    "obs.value": 3660
  },
  {
    "binder": "hIL10Ra_VHH14 - hIL2Rg_VHH19, linker GGSGGS, tag his (bispecific antibody, not shown: small tags and cut ends) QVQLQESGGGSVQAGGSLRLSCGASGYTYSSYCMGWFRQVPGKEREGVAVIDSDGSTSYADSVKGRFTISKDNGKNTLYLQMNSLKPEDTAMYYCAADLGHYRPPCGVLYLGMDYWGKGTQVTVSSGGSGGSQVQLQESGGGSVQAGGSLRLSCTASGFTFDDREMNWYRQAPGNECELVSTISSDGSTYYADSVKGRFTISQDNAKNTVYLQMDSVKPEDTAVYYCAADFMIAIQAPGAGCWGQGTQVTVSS",
    "value.unit": "pg/mL",
    "obs.value": 5780
  }
]
